# Target of assay: binding partner of C5A (XPA23)
# Assay summary: Biacore, K-off
Assign satisfied to entries whose fold difference in affinity vs original meets or exceeds 0.1 fold; assign not satisfied to the rest.

Take a look at these entries with their results.
binder="C5A (XPA23) VH F35S (antibody, V domains shown) VH: EVQLLESGGGLVQPGGSLRLSCAASGFTFSKYFMSWVRQAPGKGLEWVSVISPSGGMTRYADSVKGRFTISRDNSKNTLYLQMNSLRAEDTAVYYCARVGYGGNSDYWGQGTLVTVSS VL: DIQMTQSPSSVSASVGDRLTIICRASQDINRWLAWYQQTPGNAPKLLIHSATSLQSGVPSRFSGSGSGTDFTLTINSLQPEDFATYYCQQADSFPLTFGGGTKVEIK" label_value="not satisfied"
binder="C5A (XPA23) VH S54R (antibody, V domains shown) VH: EVQLLESGGGLVQPGGSLRLSCAASGFTFSKYFMFWVRQAPGKGLEWVSVISPRGGMTRYADSVKGRFTISRDNSKNTLYLQMNSLRAEDTAVYYCARVGYGGNSDYWGQGTLVTVSS VL: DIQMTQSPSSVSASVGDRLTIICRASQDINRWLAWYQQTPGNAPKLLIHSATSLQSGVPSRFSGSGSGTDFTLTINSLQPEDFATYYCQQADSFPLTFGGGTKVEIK" label_value=satisfied
binder="C5A (XPA23) VH R59N (antibody, V domains shown) VH: EVQLLESGGGLVQPGGSLRLSCAASGFTFSKYFMFWVRQAPGKGLEWVSVISPSGGMTNYADSVKGRFTISRDNSKNTLYLQMNSLRAEDTAVYYCARVGYGGNSDYWGQGTLVTVSS VL: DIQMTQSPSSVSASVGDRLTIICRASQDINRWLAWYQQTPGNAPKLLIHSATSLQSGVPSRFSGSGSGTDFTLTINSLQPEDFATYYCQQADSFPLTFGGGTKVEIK" label_value=satisfied
binder="C5A (XPA23) VH G56T (antibody, V domains shown) VH: EVQLLESGGGLVQPGGSLRLSCAASGFTFSKYFMFWVRQAPGKGLEWVSVISPSGTMTRYADSVKGRFTISRDNSKNTLYLQMNSLRAEDTAVYYCARVGYGGNSDYWGQGTLVTVSS VL: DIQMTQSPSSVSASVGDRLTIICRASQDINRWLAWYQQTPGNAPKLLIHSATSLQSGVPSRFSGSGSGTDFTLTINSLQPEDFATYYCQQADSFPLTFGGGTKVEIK" label_value=satisfied
binder="C5A (XPA23) VH Y101E (antibody, V domains shown) VH: EVQLLESGGGLVQPGGSLRLSCAASGFTFSKYFMFWVRQAPGKGLEWVSVISPSGGMTRYADSVKGRFTISRDNSKNTLYLQMNSLRAEDTAVYYCARVGEGGNSDYWGQGTLVTVSS VL: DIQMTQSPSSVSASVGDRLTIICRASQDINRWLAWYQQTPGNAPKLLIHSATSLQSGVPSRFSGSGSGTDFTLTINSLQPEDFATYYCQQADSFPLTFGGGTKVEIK" label_value="not satisfied"

Inquiry: Does the reported fold difference in affinity vs original for C5A (XPA23) VH S105H (antibody, V domains shown) VH: EVQLLESGGGLVQPGGSLRLSCAASGFTFSKYFMFWVRQAPGKGLEWVSVISPSGGMTRYADSVKGRFTISRDNSKNTLYLQMNSLRAEDTAVYYCARVGYGGNHDYWGQGTLVTVSS VL: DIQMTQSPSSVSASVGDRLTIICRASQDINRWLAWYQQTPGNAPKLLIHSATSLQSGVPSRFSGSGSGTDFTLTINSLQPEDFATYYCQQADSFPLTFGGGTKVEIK fall at or above the 0.1 fold mark?
Reply text: not satisfied

Inquiry: Does the reported fold difference in affinity vs original for C5A (XPA23) VH N104Q (antibody, V domains shown) VH: EVQLLESGGGLVQPGGSLRLSCAASGFTFSKYFMFWVRQAPGKGLEWVSVISPSGGMTRYADSVKGRFTISRDNSKNTLYLQMNSLRAEDTAVYYCARVGYGGQSDYWGQGTLVTVSS VL: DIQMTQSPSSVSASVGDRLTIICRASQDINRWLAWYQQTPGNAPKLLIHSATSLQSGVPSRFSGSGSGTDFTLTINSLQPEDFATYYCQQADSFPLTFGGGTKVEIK fall at or above the 0.1 fold mark?
Reply text: not satisfied

Inquiry: Does the reported fold difference in affinity vs original for C5A (XPA23) VH S54D (antibody, V domains shown) VH: EVQLLESGGGLVQPGGSLRLSCAASGFTFSKYFMFWVRQAPGKGLEWVSVISPDGGMTRYADSVKGRFTISRDNSKNTLYLQMNSLRAEDTAVYYCARVGYGGNSDYWGQGTLVTVSS VL: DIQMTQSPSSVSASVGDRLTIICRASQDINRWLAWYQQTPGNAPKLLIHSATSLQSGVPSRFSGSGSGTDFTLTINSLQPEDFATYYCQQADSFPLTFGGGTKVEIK fall at or above the 0.1 fold mark?
Reply text: satisfied

Inquiry: Does the reported fold difference in affinity vs original for C5A (XPA23) VH M57T (antibody, V domains shown) VH: EVQLLESGGGLVQPGGSLRLSCAASGFTFSKYFMFWVRQAPGKGLEWVSVISPSGGTTRYADSVKGRFTISRDNSKNTLYLQMNSLRAEDTAVYYCARVGYGGNSDYWGQGTLVTVSS VL: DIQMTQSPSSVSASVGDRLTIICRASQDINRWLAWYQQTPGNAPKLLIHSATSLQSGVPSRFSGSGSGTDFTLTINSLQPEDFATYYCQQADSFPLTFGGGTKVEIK fall at or above the 0.1 fold mark?
Reply text: not satisfied

Hello, the source for this data is patent US20110118447A1, in case you need it.
